System: 22Rv1
Experiment: Cancer cell growth IC50 (crystal violet)
Format: cell-based, human
Conditions: Homo sapiens, Example 13, 72 h
Experimental: Exemplary Embodiments are generally performed as follows, unless otherwise noted. Simvastatin is purchased from Ark Pharm, Inc. (Arlington Heights, IL). Cisplatin (CIS) is purchased from MedKoo Biosciences, Inc. (Chapel Hill, NC). […] All intermediates are characterized by 1H NMR and mass analysis and the purity of compounds are analyzed by HPLC. […] IC50 is the half maximal inhibitory concentration and determined is determined by crystal violet assay unless otherwise noted. […]
pIC50: −log10 of the molar value.

{"columns": ["compound", "pIC50"],
 "data": [
  ["CCC(C)(C)C(=O)O[C@H]1C[C@@H](C)C=C2C=C[C@H](C)[C@H](CC[C@@H]3C[C@@H](O)CC(=O)O3)[C@H]21 [SIM, Simvastatin]", 5.45]
]}

Data origin: patent US12121510B2
